- Assay overview: soluble on expression in E. coli; label from the status in PepcDB or PDB records
Quantity name: soluble on expression in E. coli

- HHHHHHGSQEAPHFKPGEDPRQPHQEWKLIENMSDEFEGKKIDEKKWQISGQGWIGRAPGLFLAENISLNNGSLQITTTMLPEPIVKNNKTYTHGGGYVGSRNGMTYGYYECEMKANKTFMSSTFWLINEGKDRLGCDKRTTELDIQESVGQITNDADWMKYFDQTMNSNTHSRNIPEGCEYEKGSSKGKAELGGKAYEDFHVYGVWWKSKDEIIFFLDGKMQSKVTPPADFDIEMYLRMVVETYDWNPVPKDGGMTGSKEDRTTTYNWVRSWQLVDSKN: soluble
- SLDWQKGMNSAIDYIEKNLTGNVNVRTAAGFVGCSTWEFQRIFSFLTHIPLSEYIRQRKLTLAAQEIKDNDVKIIDIALKYGYESPAAFSRAFNKLFGIAPSSVRNTENNLKTYPRITFEKIENERLIKMSRFSERGYVVRENGPVYFTKDMDKTVKWFEEILGWSGDIVARDDEGFGDYGCVFDYPSEVAVAHLTPFRGFHLFKGEPIKGVAGFMMIEGIDALHKYVKENGWDQISDIYTQPWGARECSITTTDGCILRFFESIQEG: soluble

---

- Assay overview: soluble on expression in E. coli; label from the status in PepcDB or PDB records
Quantity name: soluble on expression in E. coli

- MKLKYSGLTASGNTHPKFTRGDIYRDQYGGMVTIKGVAERRITYRREGYEYDCVMPVYQFRRDFTLVQAAPRSKPTSREKARANIQEIKKMLNVFRGKK: not soluble
- MGSDKIHHHHHHMDVLRCENLKKRFGRRYVVNGVNLEFHRGEIVGLLGPNGAGKTTIFNMILGVVVPTSGKIIFRDVDITKFPVYRRARLGITYLQQETSIFGGLTVRENIDLVLRFHEKDKEKRERKIEELLHEFHLKHLENQPASFLSGGEKRKLELARMMCLNPAFILLDEPFSGIDPKTVKEIQKMTLELKQKNFGIVITDHNVDELVEIADRIYVIYKGEILAEGSPERILEDETVREVYLGT: not soluble

---

- Assay overview: soluble on expression in E. coli; label from the status in PepcDB or PDB records
Quantity name: soluble on expression in E. coli

These solved cases illustrate the format of a correct answer.
* MNFQKLLKEAQKAQKKAAEVQERLERMTVVGSAQGLVEVEANGHGKILALRLKPEALKAFQDDPEGLEDLLLVAIQDAQTKAHELSEKEMAKELGGVGQMLGKLF | soluble
* MEDIIFGKRSNVFDVNPENTVFVLIAGTSEVSTVPGITSAGATPELTRLTPAIDSEIIGEGKCLSSKDPPMTPEGIPTPAIVTKAILSLTNIRYIIVNGGFYAKPKTPFIETGLKPSNNPAVKTAIEDLDAAIHAGEHIGRLLDGVFENIILAESVPGGTTTAYAVLKAIGINAKTSSSMKEDPFSIKEKIAEMSFRRKLEKSPLGAVKEYGDNMMAVSLGISSSVKRSKIIFGGGTQMATVMYLDRLINGMRDRYISTTGWVYYHRTELFSDLGLSDYLAVSAMDFSGMKHPGLRYYQYGHVREGTGMGAAFLLARLMNFEAEAIYKSVDDFYEQFI | not soluble
* RNFKMIDNLSKVYGVELGYASRIKLLRAVFVNMAAAGASELAIDAGMDLMSMDLAGKVSARAGQGLGVGILTARLGLKAMALLRPLPWYPDRQVKLGTIRKAVVAKVASITMKP | not soluble
* VVDFGALPPEINSARMYAGPGSASLVAAAKMWDSVASDLFSAASAFQSVVWGLTTGSWIGSSAGLMVAAASPYVAWMSVTAGQAELTAAQVRVAAAAYETAYGLTVPPPVIAENRAELMILIATNLLGQNTPAIAVNEAEYGEMWAQDAAAMFGYAATAATATEALLPFEDAPLITNPGGLLEQAVAVEEAIDTAAANQLMNNVPQALQQLAQPTKSIWPFDQLSELWKAISPHLSPLSNIVSMLNNHVSMTNSGVSMASTLHSMLKGFAPAAAQAVETAAQNGVQAMSSLGSQLGSSLGSSGLGAGVAANLGRAASVGSLSVPQAWAAANQAVTPAARALPLTSLTSAAQTAPGHMLGGLPLGQLTNSGGGFGGVSNALRMPPRAYVMPRVPAAG | soluble
* MGHHHHHHSHMDPDTFTFNFNNDPLVLRRRQTYLCYEVERLDNGWMVLMDQHMGFLCNEAKNLLCGFYGRHADWRFLDLVPSLQLDPAQIYRVTWFISWSPCFSWGCAGEVRAFLQENTHVRLPIFAARIYDYDPLYKEALQMLRDAGAQVSIMTYDEFEYCWDTFVYRQGCPFQPWDGLEEHSQALSGRLRAILQNQGN | not soluble

# evaluate next
Q: I have this sequence here, MGSDKIHHHHHHMIWNIDYFCNLRCKSCNAWQGKIFFPEDQIDKHLQEMKNNGIKIVSVTGGEPTLNKNVVDIIRKLKENHFFTHIATNGTNPYVLRKLYPYLDAVTISLDSNIPEEHNAYRGLKIFDTVVSNIKEAKSKVKIVTANMLVTNFNYFKVGEIADFANNELGVPLSMCFPEQDAYYFQDFQVTNDMIRQAFSYAYENYHKHVFGNMRSYYKEAVDFIDGKGSRACKAGQEIFYTDYRGKVHPCFEHVEVVLNKKPTWDIYDNKCHKCFTECFLEPSIDHTFEAASLIGKIWWFNHVKRRDIKYIETKRPKQVPS , and I need its recorded soluble on expression in E. coli.
Ans: not soluble

---

- Assay overview: soluble on expression in E. coli; label from the status in PepcDB or PDB records
Quantity name: soluble on expression in E. coli

These solved cases illustrate the format of a correct answer.
- MGSDKIHHHHHHMSPKAAIHNRSGSFSDRWIAYCQQRNIPYKTVDCHSSDIIEELADCSFLMWNWSQTYAEDMLIARGLIKAVESMGIRVFPNSETCWHFDDKVAQKYLMEALGVPMVKSYVFLDRARALEWARKTEYPKVFKLRGGAGSSNVFLVNDINKAERLINKAFSTGFPPVSRWNALSERWWQFKRDKTFISFFNISRGIFRALIKNPTLERLPVQRNYAYFQDFVPDNDSDIRVIAIGKRAFGIKRMVREGDFRASGSGKILYDPELIPEACIRMTFDLAKKTRSQSLVLDFIFSDGSPLVVEMSYAFASHGYLSCPGYWRNDMTWVEGSFHPEDFMVDDLIVSSVERS: not soluble
- VSDFKYGALLNITTLSNKVLSLGYEKPFIDSGQARTRLNGPLAEFFLYKTDGIFKTQEQIDNYVTPDGEPIMISGKRPQLGDVKYIDTDNNGQITADDRQFCGSPWAKMQMSLVLNAEWKDFDFSMMWNGQFGNKIYNVSKWQGRLFSDNSNYLRFKKGEEPYQVNQNSDTPRIIYGDQRNSWDADRFLENGSYFRLKNISIGYNLKKEWLKNLGIDKLRLYATGSNLLTFTGYSGLDPDFINTNIWNSGTDSFSYPNTRSVMFGLDLTF: not soluble
- MGHHHHHHSHMLALATSIHQSQLDRERILSLEQRVVELQQTLAQKDQALGKLEQSLRLMEEASFDGTFLWKITNVTRRCHESACGRTVSLFSPAFYTAKYGYKLCLRLYLNGDGTGKRTHLSLFIVIMRGEYDALLPWPFRNKVTFMLLDQNNREHAIDAFRPDLSSASFQRPQSETNVASGCPLFFPLSKLQSPKHAYVKDDTMFLKCIVETST: not soluble
- GMGRILREGAGWRLGWDETAHRYPGLVGTTDWAVELTAAEMADFCRLVQQLAETIAAIAPELMPEERLQIEAESALLWLEAEGFADAYELRLILASDRRVEACWPAAAVPALVAATHTLKGF: soluble
- MSVIQNIIGRIAVLRGGKYSVEVDVATDEGFGRFTSPIDDNPMLHIAEARRAVSEVDEIIGPELIGFDASEQELIDSYLWEIDGTEDFSHIGANTALAVSTAIAKAAANSRDMPLYSYIGGTFATELPVPVLSFAQDDMFDYYLVVKDLLEVTDIIDATNKIREIVKEINLENLSKASEDVGVELGLEVALGIGMKKEMDIEKVLNLVEDYNVAYIKPIGPPELFLELIAGTHGVFIDGEYLFRTNSVLDRRYYNALSIKPINLGTLTDLYNFVNDVKAEKITPILAEAKYEPADETFPHIALGLRCPAMLISWSSIEKINELNRIAEELGERGRIITFEE: soluble

Q: I have this sequence here, MSLIESVMTVLVTRPDEQGAELCQLLHQQGIPALHHPLLAISASPQLAALAEDLSSFDIIIAVSQHAVIFSDQFLQHRRICWPNNAIYLAVGQKTAHVFSKACQQSVDYPEISDSEHLLALSMLRDVAGKKVLILRGNGGRELIYSTLVERGATVRYQEAYCRHERPFAAAECVQKWQLAKVDSLVITSSEQLAFFIRQFETSHLPWVQQLTLLVPSQRIATLAHQLGFHRIVVTLSAANRDLVAALMPEKPTGTLSNDQQQEGHHHHHH , and I need its recorded soluble on expression in E. coli.
Ans: soluble

Q: Further, for MGHHHHHHSHLCTNFFIFTGGPGSGKTAVLNELNTWGYLTVSEVARSIIQKQQADGGDAIHTGNRKAFRDLMLEQSIADYCKMQSEEKIVFFDRGIPDLYGYSKAFCGEASKEVNEAVGRFRYNKTVFIFPPWPEIYENDDERQQDYQEALQTYYAVKEGYFDCGYVLLEVPKCPIKDRANFIFQMISKNG ?
Ans: not soluble

Q: Further, for MAEECSGNCDSCGSSSDCSDTKKMMEQQNAQIRDNMSKIKYKIAVMSGKGGVGKSTVTVNLAATLNMMGYKVGVLDGDIHGPNIPQMLGVDQIQPMADENGIYPVSTPQGIKTMSIGYFLPDKNTPIIWRGPKASGAIRQFLSDVNWGELDFLLIDTPPGSGDIQITTLQAIPDIDGVVIVTTPEEVSVLDARKSVSAANTLEIPIIGIVENMGGFVCPECDKVIDIFGKGGGEKAAKELNVFFLGRIPLDIKARVASDRGVPMVTMDCKASEEFKKVVNTVLERIKKELEHHHHHH ?
Ans: soluble
